Tested on: HCC-2998 colon
Test: NCI-60 one-dose screen, 48 h
Conditions: 10 µM
The panel holds about 83,000 compounds, 20% with a hit somewhere; the sample as a whole holds those more often. Active and inactive are the calls of the source. The calls were made as follows: active = growth percent below 10; inactive = the rest.
Write down the outcome that applies. Available outcomes: active, inactive

Query block: Assay result, entry COc1ccc(C(=O)c2ccccc2CN2C(=O)c3ccccc3C2=O)cc1 — outcome?
Result block: inactive

Query block: Name the outcome recorded for CCOC(=O)C1C(C(=O)OCC)C2C(=O)C3C(C(=O)OCC)C(C(=O)OCC)C3C(=O)C12 (stereo not given) in the assay.
Result block: inactive

Query block: Entry O=C(CCCCCCC(=O)Nc1ccccc1)NO : call = ?
Result block: active

Query block: GET /call?item= O=C(NCCNC(=O)c1ccc(F)cc1)Nc1ccc(-n2cc(-c3ccncc3)c(-c3ccc(Cl)c(O)c3)n2)cc1 returns the recorded outcome of this test.
Result block: active

Query block: Which outcome was assigned to COCCn1cc(-c2nc(-c3cccnc3)cs2)c2cc(F)ccc21 in this test?
Result block: inactive

Query block: What did the test return for C/C(=C/CCC(C)[C@@H]1CC[C@]2(C)C3=C(CC[C@@]12C)[C@@]1(C)CCC(=O)C(C)(C)[C@@H]1CC3)C(=O)O (stereo not given in full) ?
Result block: active

Query block: Returns: the outcome recorded for CC1C(=NC(=O)c2cnccn2)C(C)C(c2ccc(Cl)cc2)NC1c1ccncc1 (stereo not given) in this assay.
Result block: inactive

Query block: I would be grateful if you could indicate the recorded call for COc1cc2c(cc1NC(=O)C(F)(F)F)-c1ccc(NC(=O)C(F)(F)F)cc1C2 .
Result block: inactive

Query block: State the result this test recorded for COc1cccc(C2C(C#N)=C(N)Oc3cc(N)ccc32)c1 (stereo not given) .
Result block: inactive

Query block: Could you kindly confirm the outcome this assay logged for Cc1ccc(NCCNCC(C)(C)O)c2c(=O)c3ccc(Cl)cc3sc12 ?
Result block: active

Query block: Could you check what this test reported for CCOC(=O)c1cc(C(=O)c2cc(OC)c(OC)c(OC)c2)n2nc(C)ccc12 ?
Result block: inactive

Query block: Entry COc1ccc(/C=C2\CCCC3=C2NC(N)=NC3c2ccc(OC)cc2)cc1 (stereo not given) : call = ?
Result block: inactive

Query block: Please state the recorded outcome for this compound: CC1(C)N=C(N)N=C(N)N1c1cccc(C#N)c1
Result block: inactive

Query block: Assay outcome for O=C(CI)OCC(COC(=O)CI)OC(=O)CI : what was it?
Result block: inactive

Query block: Which outcome did this test record for the compound Nc1cc(-c2ccncc2)c[nH]c1=O ?
Result block: inactive

Query block: Tell me the recorded outcome of this test for CCOC(=O)c1sc2ncnc(Nc3ccc(NC(=O)Nc4ccc(Cl)cc4)cc3)c2c1C .
Result block: inactive

Query block: I would be grateful if you could indicate the recorded call for COc1cc2c3c(n(C4CCN(C)CC4)c(=O)c2cc1OC)-c1cc2c(cc1C3=O)OCO2 .
Result block: inactive

Query block: What is the recorded call for this compound in the test? CCCCN(CCCC)C(=O)[C@H](CC)[C@@H]1CC[C@@H](C)[C@@H]([C@H](C)[C@@H](O)[C@@H](C)C(=O)[C@H](CC)C2O[C@]3(C=C[C@@H](O)[C@]4(CC[C@@](C)([C@H]5CC[C@](O)(CC)[C@H](C)O5)O4)O3)[C@H](C)C[C@@H]2C)O1 (stereo not given in full)
Result block: active

Query block: Hey, what did the test say about COc1ccc2nc(Cl)c(Cn3nnc(Cc4ccccc4)n3)cc2c1 ?
Result block: inactive

Query block: # outcome recorded in this test, key = CCc1cc(Cl)c(OC)c(C(=O)NCC2CCCN2CC)c1O (stereo not given)
Result block: inactive
